System: hNAMPT protein (Homo sapiens (Human), UniProt P43490) | Read-out: IC50
Sequence (P43490 whole entry): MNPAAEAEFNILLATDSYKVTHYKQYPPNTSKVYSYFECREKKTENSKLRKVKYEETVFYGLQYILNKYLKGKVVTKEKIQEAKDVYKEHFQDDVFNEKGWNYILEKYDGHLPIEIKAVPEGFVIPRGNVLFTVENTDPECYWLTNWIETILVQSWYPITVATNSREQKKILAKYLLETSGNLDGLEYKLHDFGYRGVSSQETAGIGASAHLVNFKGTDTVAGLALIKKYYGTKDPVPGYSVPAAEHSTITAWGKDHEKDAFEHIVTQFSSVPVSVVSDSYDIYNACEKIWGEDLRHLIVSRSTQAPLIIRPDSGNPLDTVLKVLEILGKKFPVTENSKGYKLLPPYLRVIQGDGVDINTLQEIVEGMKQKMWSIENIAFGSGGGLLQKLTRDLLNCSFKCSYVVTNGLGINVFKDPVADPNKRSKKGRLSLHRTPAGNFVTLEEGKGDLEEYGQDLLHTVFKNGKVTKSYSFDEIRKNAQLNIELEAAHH

Solved cases (5 shown):
smiles-input	assayed-target	IC50
CCOc1cc(-c2ccc(F)cc2)nc2cc(C(=O)NCCCc3nnc(N)[nH]3)ccc12	hNAMPT protein (Homo sapiens (Human), UniProt P43490)	50 to 100 nM
CC(C)(C)OCc1nc(-c2ccc(Cl)cc2)nc2cc(C(=O)NCCCc3ncc[nH]3)ccc12	hNAMPT protein (Homo sapiens (Human), UniProt P43490)	50 to 100 nM
CCOc1cc(-c2ccc(F)cc2)nc2cc(C(=O)NCCc3cc(N)[nH]n3)ccc12	hNAMPT protein (Homo sapiens (Human), UniProt P43490)	10 to 50 nM
CCOc1cc(-c2ccc(F)cc2)nc2cc(C(=O)NCCc3cnn[nH]3)ccc12	hNAMPT protein (Homo sapiens (Human), UniProt P43490)	< 10 nM
CCOc1cc(-c2ccc(OC)nc2)nc2cc(C(=O)NCCCc3nnc[nH]3)ccc12	hNAMPT protein (Homo sapiens (Human), UniProt P43490)	10 to 50 nM

What value of IC50 has been reported for the following compound? CCOc1cc(-c2ccc(C)nc2)nc2cc(C(=O)NCCc3[nH]nnc3C)ccc12
10 to 50 nM

Please do the same for CCOc1cc(-c2cccnc2OC)nc2cc(C(=O)NCCc3c[nH]nc3C)ccc12 as well.
10 to 50 nM

What do you have for CCOc1cc(-c2ccc(F)cc2)nc2cc(C(=O)NCc3nc4cnccc4[nH]3)ccc12 ?
< 10 nM
